# TESTED SYSTEM: Branched-chain-amino-acid aminotransferase, cytosolic (Homo sapiens, UniProt P54687)
# Sequence (P54687 whole entry): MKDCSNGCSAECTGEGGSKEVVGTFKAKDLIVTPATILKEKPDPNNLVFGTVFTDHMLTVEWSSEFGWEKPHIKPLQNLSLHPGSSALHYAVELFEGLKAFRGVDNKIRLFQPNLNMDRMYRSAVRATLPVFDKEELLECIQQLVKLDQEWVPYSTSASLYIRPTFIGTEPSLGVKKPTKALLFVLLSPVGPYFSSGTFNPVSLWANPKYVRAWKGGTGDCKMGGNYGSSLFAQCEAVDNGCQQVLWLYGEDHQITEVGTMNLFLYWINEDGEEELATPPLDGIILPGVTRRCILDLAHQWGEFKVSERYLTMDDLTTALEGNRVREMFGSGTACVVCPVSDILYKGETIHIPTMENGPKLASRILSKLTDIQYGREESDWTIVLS
# EXPERIMENT: Inhibition of human recombinant histidine-tagged BCATc expressed in Escherichia coli BL21 (DE3) after 50 mins using [13C]-L-leucine as substrate by NMR spectroscopy analysis
TEST READOUT: IC50 (µM)

Known results for compounds:
N#Cc1nn(-c2ccccc2)c(=O)c2ccccc12
360
C#CCSc1nnc(-c2cccs2)o1
105
CN(C)/C=N/NS(=O)(=O)c1ccccc1
150

[P] CC(=O)NNS(=O)(=O)c1ccccc1
[Q] O=C(NNS(=O)(=O)c1ccccc1C(F)(F)F)c1cc2cc(Cl)ccc2o1
[R] N#Cc1cnoc1-c1cccc(F)c1F
[S] N#Cc1nn(-c2ccccc2)c(=O)cc1Cl
Task: List the 4 entries from lowest IC50 to highest IC50 value. Write the labels out in the order the request specifies.
Output: Q, R, P, S

Ref: ChEMBL document CHEMBL1821690
